- TARGET_OR_TEST_SYSTEM: ABCB1 (Homo sapiens)
- Sequence (P08183 whole entry): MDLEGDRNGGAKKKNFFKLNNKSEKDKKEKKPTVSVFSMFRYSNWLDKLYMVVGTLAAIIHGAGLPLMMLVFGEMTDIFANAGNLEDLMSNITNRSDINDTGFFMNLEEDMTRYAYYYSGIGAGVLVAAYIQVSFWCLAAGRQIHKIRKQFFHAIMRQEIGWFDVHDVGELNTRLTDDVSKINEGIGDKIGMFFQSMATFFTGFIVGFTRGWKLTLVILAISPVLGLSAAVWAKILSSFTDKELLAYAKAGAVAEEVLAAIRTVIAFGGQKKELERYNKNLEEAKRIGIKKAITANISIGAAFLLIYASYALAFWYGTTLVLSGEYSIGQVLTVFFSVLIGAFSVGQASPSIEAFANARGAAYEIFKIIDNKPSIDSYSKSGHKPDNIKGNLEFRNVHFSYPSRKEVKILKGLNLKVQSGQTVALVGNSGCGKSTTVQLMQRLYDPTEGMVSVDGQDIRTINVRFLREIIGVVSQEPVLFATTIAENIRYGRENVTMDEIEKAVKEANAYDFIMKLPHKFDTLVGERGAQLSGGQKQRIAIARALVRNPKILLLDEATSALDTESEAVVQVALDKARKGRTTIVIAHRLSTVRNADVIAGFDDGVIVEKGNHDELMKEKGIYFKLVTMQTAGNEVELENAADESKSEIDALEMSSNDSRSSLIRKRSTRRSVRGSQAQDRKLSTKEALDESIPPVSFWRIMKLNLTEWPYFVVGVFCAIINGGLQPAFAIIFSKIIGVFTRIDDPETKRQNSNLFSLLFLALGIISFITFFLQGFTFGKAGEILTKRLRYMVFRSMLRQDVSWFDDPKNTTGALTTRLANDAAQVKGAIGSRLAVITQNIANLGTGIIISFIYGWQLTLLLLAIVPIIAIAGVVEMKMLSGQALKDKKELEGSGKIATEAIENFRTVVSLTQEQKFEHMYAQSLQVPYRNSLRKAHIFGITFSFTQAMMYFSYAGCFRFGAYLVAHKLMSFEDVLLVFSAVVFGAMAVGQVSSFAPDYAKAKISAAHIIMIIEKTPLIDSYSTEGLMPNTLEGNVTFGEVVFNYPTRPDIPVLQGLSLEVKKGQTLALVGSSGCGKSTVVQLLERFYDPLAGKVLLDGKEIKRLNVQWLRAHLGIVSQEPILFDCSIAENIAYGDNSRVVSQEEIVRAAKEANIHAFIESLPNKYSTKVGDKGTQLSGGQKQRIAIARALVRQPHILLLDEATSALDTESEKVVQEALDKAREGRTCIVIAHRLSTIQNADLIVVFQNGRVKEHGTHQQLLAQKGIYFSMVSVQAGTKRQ
- MEASUREMENT_DESCRIPTION: Inhibition of ABCB1 overexpressed in human KBv1 cells at 100 uM by flow cytometric-based calcein-AM efflux assay
- Format: cell-based
- CONDITION_PARAMETERS: KBv1 cells overexpressing ABCB1, probe calcein-AM
MEASURED_ATTRIBUTE: inhibition at 100 µM (%)
Unit % implied. Number only.

Ask | Form field: reported inhibition at 100 µM of COc1ccc2c3c([nH]c2c1)[C@H](C=C(C)C)N1C(=O)[C@@H]2CCCN2C(=O)[C@@H]1C3 [FUMITREMORGIN]
Reply | 22

====

Overview of reported IC50 across a group of compounds:
- TARGET_OR_TEST_SYSTEM: UniProtKB Q9UNQ0
- Sequence (Q9UNQ0 whole entry): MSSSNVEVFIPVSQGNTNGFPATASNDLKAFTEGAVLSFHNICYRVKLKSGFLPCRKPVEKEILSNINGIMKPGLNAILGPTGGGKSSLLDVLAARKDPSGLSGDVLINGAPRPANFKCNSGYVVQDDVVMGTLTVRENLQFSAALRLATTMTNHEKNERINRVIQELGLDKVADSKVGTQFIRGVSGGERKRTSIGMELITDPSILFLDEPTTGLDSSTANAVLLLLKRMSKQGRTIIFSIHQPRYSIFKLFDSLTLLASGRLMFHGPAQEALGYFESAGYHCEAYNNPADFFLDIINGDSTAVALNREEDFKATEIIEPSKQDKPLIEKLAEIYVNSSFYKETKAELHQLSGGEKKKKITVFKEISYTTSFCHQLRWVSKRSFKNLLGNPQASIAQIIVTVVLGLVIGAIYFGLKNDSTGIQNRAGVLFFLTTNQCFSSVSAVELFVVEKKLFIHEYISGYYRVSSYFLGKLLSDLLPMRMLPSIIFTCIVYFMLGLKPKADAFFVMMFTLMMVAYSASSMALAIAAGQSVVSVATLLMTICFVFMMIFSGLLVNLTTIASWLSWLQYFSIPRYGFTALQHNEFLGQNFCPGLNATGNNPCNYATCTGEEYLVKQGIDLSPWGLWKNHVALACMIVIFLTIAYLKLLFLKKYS
- MEASUREMENT_DESCRIPTION: Inhibition of ABCG2 overexpressed in human MCF7/Topo cells by flow cytometric-based mitoxantrone efflux assay
Number in nM, nothing else.

Known IC50 results, listed for orientation:
COC(=O)c1ccc(C(=O)Nc2ccc(CCN3CCc4cc(OC)c(OC)cc4C3)cc2)cc1NC(=O)c1cccnc1 = 1020
COC(=O)c1ccc(C(=O)Nc2ccc(CCN3CCc4cc(OC)c(OC)cc4C3)cc2)cc1NC(=O)c1cnc2ccccc2n1 = 183
COC(=O)c1ccc(C(=O)Nc2ccc(CCN3CCc4cc(OC)c(OC)cc4C3)cc2)cc1NC(=O)c1cnc(C)cn1 = 552
COc1cc2c(cc1OC)CN(CCc1ccc(NC(=O)c3cc(OC)c(OC)cc3NC(=O)c3cnc4ccccc4c3)cc1)CC2 = 916
COC(=O)c1ccc(C(=O)Nc2ccc(CCN3CCc4cc(OC)c(OC)cc4C3)cc2)cc1NC(=O)c1ccc2ncccc2c1 = 179

Shift focus to the following entry.
Ask | Request the reported IC50 associated with COC(=O)c1ccc(C(=O)Nc2ccc(CCN3CCc4cc(OC)c(OC)cc4C3)cc2)cc1NC(=O)c1cnc2ccccc2c1
Reply | 119
